test system: HSV-2; assay: Plaque reduction assay, herpes simplex virus type 2; type: cell-based, Herpes simplex virus (HSV); set-up: unit not given here; details: vero cells, 48-hour incubation; concentration reducing number of plaques by 50%
Experimental Readout: Plaque Reduction HSV-2 ID50
Give bare numbers.

Working through the 7 compounds below one at a time, give Plaque Reduction HSV-2 ID50 for each.
1. COP(=O)(O)COCCn1cnc2c(=O)[nH]c(N)nc21
2. CC(C)OP(=O)(O)COCCn1cnc2c(=O)[nH]c(N)nc21
3. CCOP(=O)(O)COCCn1cnc2c(=O)[nH]c(N)nc21
4. Nc1ncnc2c1ncn2C[C@@H](CO)OCP(=O)(O)O [reference compound]
5. CCCOP(=O)(O)COCCn1cnc2c(=O)[nH]c(N)nc21
6. Nc1nc2c(ncn2COCCO)c(=O)[nH]1 [Acyclovir, reference compound]
7. CC(COCP(=O)(O)O)n1cnc2c(=O)[nH]c(N)nc21 (stereo not shown)

1. 1.2
2. 34.8
3. 5.1
4. 35.8
5. 9.9
6. 1.5
7. 3.3
